Cited source: the supplement of paper PMC10567573

Catalogue of protein stability index readings, one per entry.
B1: INTS4 (parent)
chain: TIIEPAGESDNPLRFTSGLVVALD

Variants of: B1
Experiment: protein stability index of a GFP-peptide fusion (GPS, HEK-293T) (PSI 1-6); higher = more stable;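 note: lentivirally expressed fusions sorted by FACS into six bins by GFP to DsRed ratio, PSI derived from sequencing read proportions per bin multiplied by bin number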
Measurement parameters: c terminus: a fixed tail appended
Returns: the value as a bare number; no unit string appended.

F15V :: 3.97
V20A :: 2.95
S17D :: 3.92
G7A :: 3.83
I2A :: 3.71

So for A6Q , the logged protein stability index turned out to be 2.72

So for D10T , the logged protein stability index turned out to be 2.63

So for R14S , the logged protein stability index turned out to be 3.63

So for V21F , the logged protein stability index turned out to be 2.37

So for T1V , the logged protein stability index turned out to be 2.23

So for F15S , the logged protein stability index turned out to be 4.21
